experimental-details: activity coefficient (dimensionless); of the first substance listed, at infinite dilution; xn = mol fraction of the nth substance listed
assay-setup: 322.85 K; Liquid; Chromatography; x1 = 0
measurement-label: activity coefficient

# compound, measurement-label, val
rows = [
    ("CCCCO [butan-1-ol] + CCCC[N+](C)(C)C.O=S(=O)([N-]S(=O)(=O)C(F)(F)F)C(F)(F)F", "activity coefficient", 2.83),
    ("CCCCCO [pentan-1-ol] + CCCC[N+](C)(C)C.O=S(=O)([N-]S(=O)(=O)C(F)(F)F)C(F)(F)F", "activity coefficient", 3.85),
    ("CC(C)(C)O [2-methylpropan-2-ol] + CCCC[N+](C)(C)C.O=S(=O)([N-]S(=O)(=O)C(F)(F)F)C(F)(F)F", "activity coefficient", 1.79),
    ("CCCO [propan-1-ol] + CCCC[N+](C)(C)C.O=S(=O)([N-]S(=O)(=O)C(F)(F)F)C(F)(F)F", "activity coefficient", 2.14),
]
